Target: Aurora-A(h) (Homo sapiens, UniProt O14965)
Construct: purchased Millipore (KinaseProfiler service); also Reaction Biology Corp. (Kinase Hotspot)
Sequence (O14965 whole entry): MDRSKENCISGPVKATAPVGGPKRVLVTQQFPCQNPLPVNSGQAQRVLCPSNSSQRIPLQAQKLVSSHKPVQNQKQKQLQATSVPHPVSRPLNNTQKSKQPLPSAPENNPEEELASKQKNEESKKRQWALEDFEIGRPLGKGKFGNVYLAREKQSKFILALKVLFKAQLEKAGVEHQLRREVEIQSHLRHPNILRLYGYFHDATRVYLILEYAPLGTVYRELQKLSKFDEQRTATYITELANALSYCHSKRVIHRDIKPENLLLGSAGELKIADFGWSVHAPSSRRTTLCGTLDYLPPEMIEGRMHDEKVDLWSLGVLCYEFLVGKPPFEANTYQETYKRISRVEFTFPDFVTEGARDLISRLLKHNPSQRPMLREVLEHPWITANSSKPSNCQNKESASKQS
Assay: Aurora-A kinase assay (KinaseProfiler Service Assay Protocols, Millipore; also Kinase Hotspot, Reaction Biology Corp.)
Type: biochemical
Conditions: compound concentration 1 μM
Below is a list of entries, each paired with its recorded inhibition at 1 µM value.

Reference set, count: 3
CCC(=O)Nc1ccc(Sc2nc(C3CC3)nc(-n3cc(C)sc3=N)n2)cc1 > 50%
Cc1cn(-c2nc(Sc3ccc(NC(=O)C(C)C)cc3)nc(N3CCN(C)CC3)n2)c(=N)s1 < 50%
CN1CCN(c2nc(Nc3nc[nH]n3)nc(Sc3ccc(NC(=O)C4CC4)cc3)n2)CC1 < 50%

Kindly note the recorded inhibition at 1 µM for Cc1cnc(Nc2nc(NCCCN3CCOCC3)nc(Sc3ccc(NC(=O)C4CC4)cc3)n2)s1 , which is > 90%

GET /value?item= Cc1cn(-c2nc(Sc3ccc(NC(=O)c4ccccc4)cc3)nc(N3CCN(C)CC3)n2)c(=N)s1 &field=inhibition at 1 µM returns > 50%

Record CCC(=O)Nc1ccc(Sc2nc(C)nc(Nc3cc(C)[nH]n3)n2)cc1 , field inhibition at 1 µM: > 90%

---

Target: Aurora-A(h) (Homo sapiens, UniProt O14965)
Construct: purchased Millipore (KinaseProfiler service); also Reaction Biology Corp. (Kinase Hotspot)
Assay: Aurora-A kinase assay (KinaseProfiler Service Assay Protocols, Millipore; also Kinase Hotspot, Reaction Biology Corp.)
Format: biochemical
Details: compound concentration 1 μM
endpoint-label: inhibition at 1 µM

molecule	target	inhibition at 1 µM
Cc1cnc(Nc2nc(Sc3ccc(NC(=O)C4CC4)cc3)nc(C3CC3)n2)s1 [Example 59]	Aurora-A(h) (Homo sapiens, UniProt O14965)	> 50%
Cc1cc(Nc2nc(Sc3ccc(NC(=O)C4CC4)cc3)nc(N3CCCC3)n2)n[nH]1 [Example 89]	Aurora-A(h) (Homo sapiens, UniProt O14965)	> 90%

Next up:
Sample Cc1cc(Nc2nc(Sc3ccc(C(=O)Nc4ccccc4)cc3)nc(N3CCN(C)CC3)n2)n[nH]1 [Example 116] ; inhibition at 1 µM observed: > 90%
